The entries below are paired with their reported pIC50.
# MEASUREMENT TARGET: Beta-secretase 1 (Homo sapiens, UniProt P56817)
# Sequence (P56817 whole entry): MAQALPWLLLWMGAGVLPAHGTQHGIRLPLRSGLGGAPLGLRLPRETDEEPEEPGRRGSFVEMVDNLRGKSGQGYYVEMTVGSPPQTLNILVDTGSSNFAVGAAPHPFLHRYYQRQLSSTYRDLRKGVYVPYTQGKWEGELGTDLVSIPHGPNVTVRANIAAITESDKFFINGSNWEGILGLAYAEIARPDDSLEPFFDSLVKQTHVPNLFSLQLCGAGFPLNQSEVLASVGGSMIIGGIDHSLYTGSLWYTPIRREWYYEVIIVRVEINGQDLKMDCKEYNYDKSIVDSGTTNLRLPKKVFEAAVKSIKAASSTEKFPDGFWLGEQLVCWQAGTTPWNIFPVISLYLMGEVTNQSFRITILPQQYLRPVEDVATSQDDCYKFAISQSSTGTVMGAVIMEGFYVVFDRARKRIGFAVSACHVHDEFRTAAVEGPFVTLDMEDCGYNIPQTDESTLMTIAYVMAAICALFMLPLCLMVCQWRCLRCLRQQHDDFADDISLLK
# PROTOCOL SUMMARY: Inhibition of BACE1
For clarity, pIC50 is expressed as the negative log10 of concentration in mol/L.

Field: example entries. Status: answers known.
{"columns": ["COMPOUND", "REPORTED RESULT"],
 "data": [
  ["CCc1cn2c3c(cc(C(=O)N[C@@H](Cc4ccccc4)[C@H](O)CNC)cc13)N(C)S(=O)(=O)C2", 7.04],
  ["CCc1cn2c3c(cc(C(=O)N[C@@H](Cc4ccccc4)[C@H](O)CNC4CC4)cc13)N(CC)S(=O)(=O)CC2", 7.70],
  ["CCNc1cc(C(=O)N[C@@H](Cc2ccccc2)[C@H](O)CNCCC(F)(F)F)cc2c1CCCS(=O)(=O)N2C", 7.59],
  ["CCc1cn2c3c(cc(C(=O)N[C@@H](Cc4ccccc4)[C@H](O)CNCc4cccc(OC)c4)cc13)NS(=O)(=O)CC2", 7.85]
]}

We next turn to a different compound, shown below.
### Prompt # query: pIC50 of entry CCNc1cc(C(=O)N[C@@H](Cc2ccccc2)[C@H](O)CNC2CC2)cc2c1CCCS(=O)(=O)N2C
### Response 6.82
